system: YAP/TAZ-TEAD transcription; test: Reporter gene assay for measuring the inhibition of YAP/TAZ-TEAD transcription (TEAD-responsive element luciferase reporter in Hek293T cells); assay type: cell-based; details: Homo sapiens, HEK-293T, 24 h, Hek293T cells transiently transfected with TEAD-responsive element luciferase reporter; 24 hours incubation
IC50 for assorted compounds

Use the examples below as a reference point.
{"columns": ["Compound", "Result"],
 "data": [
  ["CCC(=O)NC1Cc2c(Nc3cccnc3)cccc2N(c2ccc(C(F)(F)F)cc2)C1 (stereo not drawn)", "1 to 20 µM"],
  ["C=CC(=O)NCC1Cc2c(-c3noc(=O)[nH]3)cccc2N(c2ccc(C(F)(F)F)cc2)C1 (stereo not drawn)", "> 20 µM"]
]}

Exam item: What IC50 value was documented for this compound, C=CC(=O)NCC1Cc2ccccc2N(c2ccc(C(F)(F)F)c(F)c2)C1 (stereo not drawn) ?
Marked response: < 1 µM

---

system: YAP/TAZ-TEAD transcription; assay: Reporter gene assay for measuring the inhibition of YAP/TAZ-TEAD transcription (TEAD-responsive element luciferase reporter in Hek293T cells); format: cell-based; settings: Homo sapiens, HEK-293T, 24 h, Hek293T cells transiently transfected with TEAD-responsive element luciferase reporter; 24 hours incubation
IC50 for assorted compounds

Use the examples below as a reference point.
{"columns": ["Compound", "IC50"],
 "data": [
  ["CC(=O)NC/C=C/C(=O)NCC1Cc2ccccc2N(c2ccc(C(F)(F)F)cc2)C1 (stereo not drawn) [Cpd. No. 193]", "< 1000 nM"],
  ["O=S(=O)(O)CCNCC1Cc2ccccc2N(c2ccc(C(F)(F)F)cc2)C1 (stereo not drawn) [compound 183]", "> 20000 nM"],
  ["C=CC(=O)NC1Cc2ccccc2N(c2cccc(C(C)C)c2)C1 (stereo not drawn) [compound 005]", "< 1000 nM"],
  ["C=CC(=O)NCC1Cc2ccccc2N(c2ccc(C(F)F)nc2)C1 (stereo not drawn) [compound 149]", "< 1000 nM"],
  ["C=CC(=O)NC1Cc2ccccc2N(c2ccc(F)cc2F)C1 (stereo not drawn) [compound 036]", "< 1000 nM"]
]}

Exam item: What IC50 value was documented for this compound, CCC(=O)NCC1Cc2ccccc2N(c2ccc(C(F)(F)F)cc2)C1 (stereo not drawn) [compound 098] ?
Marked response: < 1000 nM

Exam item: What IC50 value was documented for this compound, C=CC(=O)NC1Cc2c(-c3nnn[nH]3)cccc2N(c2ccc(C(F)(F)F)cc2)C1 (stereo not drawn) [compound 137] ?
Marked response: > 20000 nM

Exam item: What IC50 value was documented for this compound, N#CCCNC1Cc2ccccc2N(c2ccc(C(F)(F)F)cc2)C1 (stereo not drawn) [compound 053] ?
Marked response: 1000 to 20000 nM

Exam item: What IC50 value was documented for this compound, C=CC(=O)NC1Cc2ccccc2N(c2ccc(OC)cc2)C1 (stereo not drawn) [compound 007] ?
Marked response: < 1000 nM

Exam item: What IC50 value was documented for this compound, C=CC(=O)NCC1CCc2ccccc2N1Cc1ccc(C(F)(F)F)cc1 (stereo not drawn) [compound 189] ?
Marked response: < 1000 nM

Exam item: What IC50 value was documented for this compound, C=CC(=O)NCC1Cc2ccccc2N(c2ccc(SC(F)(F)F)cc2)C1 (stereo not drawn) [compound 114] ?
Marked response: < 1000 nM

Exam item: What IC50 value was documented for this compound, C=CC(=O)NCC1Cc2ccccc2N(c2ccc(C#N)nc2)C1 (stereo not drawn) [compound 151] ?
Marked response: < 1000 nM

Exam item: What IC50 value was documented for this compound, C=CC(=O)NCC1Cc2ccccc2N(c2ccc(C(F)(F)F)nc2)C1 (stereo not drawn) [compound 094] ?
Marked response: < 1000 nM

Exam item: What IC50 value was documented for this compound, C=CC(=O)NC1Cc2ccccc2N(c2ccc3cc[nH]c3c2)C1 (stereo not drawn) [compound 017] ?
Marked response: < 1000 nM

Exam item: What IC50 value was documented for this compound, C=CC(=O)NCC1Cc2ccccc2N(c2cc(F)ccc2F)C1 (stereo not drawn) [compound 110] ?
Marked response: < 1000 nM

---

test system: YAP/TAZ-TEAD transcription; assay: Reporter gene assay for measuring the inhibition of YAP/TAZ-TEAD transcription (TEAD-responsive element luciferase reporter in Hek293T cells); assay type: cell-based; conditions: Homo sapiens, HEK-293T, 24 h, Hek293T cells transiently transfected with TEAD-responsive element luciferase reporter; 24 hours incubation
Observable: IC50

{"columns": ["Molecule", "Study system", "IC50"],
 "data": [
  ["C=CC(=O)NCC1Cc2ccccc2N(c2ccc(F)cc2)C1 (stereo not drawn)", "YAP/TAZ-TEAD transcription", "< 1 µM"],
  ["C=CC(=O)NC1Cc2ccccc2N(CC2CCCCC2)C1 (stereo not drawn)", "YAP/TAZ-TEAD transcription", "< 1 µM"],
  ["C=CS(=O)(=O)NCC1Cc2ccccc2N(c2ccc(C(F)(F)F)cc2)C1 (stereo not drawn)", "YAP/TAZ-TEAD transcription", "< 1 µM"],
  ["C=CC(=O)NCC1Cc2ccccc2N(c2ccccc2)C1 (stereo not drawn)", "YAP/TAZ-TEAD transcription", "< 1 µM"],
  ["O=C(O)CCNC1Cc2ccccc2N(c2ccc(C(F)(F)F)cc2)C1 (stereo not drawn)", "YAP/TAZ-TEAD transcription", "< 1 µM"],
  ["C=C(F)C(=O)NC1Cc2ccccc2N(c2ccc(C(F)(F)F)cc2)C1 (stereo not drawn)", "YAP/TAZ-TEAD transcription", "< 1 µM"]
]}

Exam item: What IC50 value was documented for this molecule, C=CC(=O)NCC1Cc2ccccc2N(c2ccc(S(F)(F)(F)(F)F)cc2)C1 (stereo not drawn) ?
Marked response: < 1 µM

Exam item: What IC50 value was documented for this molecule, C=CC(=O)NC1Cc2c(C#N)cccc2N(c2ccc(C(F)(F)F)cc2)C1 (stereo not drawn) ?
Marked response: < 1 µM

Exam item: What IC50 value was documented for this molecule, OCCNC1Cc2ccccc2N(c2ccc(C(F)(F)F)cc2)C1 (stereo not drawn) ?
Marked response: < 1 µM

Exam item: What IC50 value was documented for this molecule, C=CC(=O)N(C)C1Cc2ccccc2N(c2ccc(C(F)(F)F)cc2)C1 (stereo not drawn) ?
Marked response: < 1 µM

Exam item: What IC50 value was documented for this molecule, OCCCNC1Cc2ccccc2N(c2ccc(C(F)(F)F)cc2)C1 (stereo not drawn) ?
Marked response: 1 to 20 µM

Exam item: What IC50 value was documented for this molecule, CCC(=O)NC1Cc2c(Cc3cccnc3)cccc2N(c2ccc(C(F)(F)F)cc2)C1 (stereo not drawn) ?
Marked response: 1 to 20 µM

Exam item: What IC50 value was documented for this molecule, C=CC(=O)NCC1Cc2ccccc2N(c2ccnc(C(F)(F)F)c2)C1 (stereo not drawn) ?
Marked response: < 1 µM

---

IC50 for assorted compounds
Tested on: YAP/TAZ-TEAD transcription
Assay: Reporter gene assay for measuring the inhibition of YAP/TAZ-TEAD transcription (TEAD-responsive element luciferase reporter in Hek293T cells)
Format: cell-based
Conditions: Homo sapiens, HEK-293T, 24 h, Hek293T cells transiently transfected with TEAD-responsive element luciferase reporter; 24 hours incubation
Method: Hek293T cells are cultured in DMEM supplemented with 10% fetal bovine serum, Sodium pyruvate, Sodium bicarbonate, L-glutamine. The cells are harvested and transiently transfected with TEAD-responsive element luciferase reporter. […] The plate was shaken for 10 min at 600 rpm, centrifuged for 1 min at 500 rpm and measured with an Envision reader (PerkinElmer). The amount of relative light units produced by the TEAD reporter is used to calculated percent of inhibition. […]

{"columns": ["Compound", "Study system", "Result"],
 "data": [
  ["C=CC(=O)NCC1Cc2ccccc2N(c2cccc(C(C)C)c2)C1 (stereo not drawn) [compound 088]", "YAP/TAZ-TEAD transcription", "< 1 µM"],
  ["CCC(=O)NC1Cc2c(Nc3ccccc3)cccc2N(c2ccc(C(F)(F)F)cc2)C1 (stereo not drawn) [compound 071]", "YAP/TAZ-TEAD transcription", "1 to 20 µM"],
  ["C=CC(=O)NCC1Cc2c(CC#N)cccc2N(c2ccc(C(F)(F)F)cc2)C1 (stereo not drawn) [Cpd. No. 163]", "YAP/TAZ-TEAD transcription", "< 1 µM"],
  ["C=CC(=O)NCC1Cc2ccccc2N(c2cccc(C(F)(F)F)c2)C1 (stereo not drawn) [compound 086]", "YAP/TAZ-TEAD transcription", "< 1 µM"],
  ["C=CC(=O)N(CCOC)C1Cc2ccccc2N(c2ccc(C(F)(F)F)cc2)C1 (stereo not drawn) [compound 133]", "YAP/TAZ-TEAD transcription", "1 to 20 µM"]
]}

Exam item: What IC50 value was documented for this compound, C#CC(=O)NCC1Cc2ccccc2N(c2ccc(C(F)(F)F)cc2)C1 (stereo not drawn) [compound 119] ?
Marked response: < 1 µM

Exam item: What IC50 value was documented for this compound, C=CC(=O)NCC1Cc2ccccc2N(C2CCC(F)(F)CC2)C1 (stereo not drawn) [compound 145] ?
Marked response: < 1 µM

Exam item: What IC50 value was documented for this compound, C=CC(=O)NC1Cc2c(NCCOC)cccc2N(c2ccc(C(F)(F)F)cc2)C1 (stereo not drawn) [compound 077] ?
Marked response: < 1 µM

Exam item: What IC50 value was documented for this compound, C=CC(=O)NC1Cc2ccccc2N(c2ccc(OC(F)(F)F)cc2)C1 (stereo not drawn) [compound 021] ?
Marked response: < 1 µM

Exam item: What IC50 value was documented for this compound, C=CC(=O)NCC1Cc2ccccc2N(c2ccc(C(C)C)cc2)C1 (stereo not drawn) [compound 087] ?
Marked response: < 1 µM

Exam item: What IC50 value was documented for this compound, C=CC(=O)NCC1Cc2ccccc2N(c2ccc(C)cc2C)C1 (stereo not drawn) [compound 116] ?
Marked response: < 1 µM

Exam item: What IC50 value was documented for this compound, C=CC(=O)NCC1Cc2ccccc2N(c2cccc(-c3ccccc3)c2)C1 (stereo not drawn) [compound 093] ?
Marked response: > 20 µM

Exam item: What IC50 value was documented for this compound, C=CC(=O)NCC1Cc2c(N)cccc2N(c2ccc(C(F)(F)F)cc2)C1 (stereo not drawn) [Cpd. No. 153] ?
Marked response: < 1 µM

Exam item: What IC50 value was documented for this compound, C=CC(=O)NC1Cc2c(CC(=O)NS(C)(=O)=O)cccc2N(c2ccc(C(F)(F)F)cc2)C1 (stereo not drawn) [compound 165] ?
Marked response: > 20 µM

Exam item: What IC50 value was documented for this compound, CNS(=O)(=O)CCNC1Cc2ccccc2N(c2ccc(C(F)(F)F)cc2)C1 (stereo not drawn) [compound 051] ?
Marked response: 1 to 20 µM

Exam item: What IC50 value was documented for this compound, C=CC(=O)NC1Cc2cc(C)ccc2N(c2ccc(C(F)(F)F)cc2)C1 (stereo not drawn) [compound 065] ?
Marked response: < 1 µM

Exam item: What IC50 value was documented for this compound, C=CC(=O)NC1Cc2nc(N)ccc2N(c2ccc(C(F)(F)F)cc2)C1 (stereo not drawn) [Cpd. No. 140] ?
Marked response: < 1 µM

Exam item: What IC50 value was documented for this compound, C=CC(=O)NC1Cc2ccncc2N(c2ccc(C(F)(F)F)cc2)C1 (stereo not drawn) [compound 083] ?
Marked response: < 1 µM
